The values you see were collected from ChEMBL document CHEMBL3616395.

Overview of recorded GI50 at 24 h for various compounds
# Experiment summary: Cytotoxicity against human HS27 cells after 24 hrs by MTT assay
# Type: cell-based

Which GI50 at 24 h reading was recorded for the compound Cc1ccc(NC(=O)Cc2c[nH]c3ccccc23)cc1NC(=O)c1cnoc1C ?
> 30 µM

Try Cc1cn(-c2cc(C(=O)Nc3ccc(C)c(NC(=O)c4cnoc4C)c3)cc(C(F)(F)F)c2)cn1 next.
> 30 µM

Try CNC(=O)c1cc(Oc2ccc(NC(=O)Nc3ccc(Cl)c(C(F)(F)F)c3)cc2)ccn1 next.
> 30 µM

* * *

# Experiment summary: Cytotoxicity against human HS27 cells after 24 hrs by MTT assay
# Format: cell-based
Overview of recorded GI50 at 24 h for various molecules

Please review the following examples before continuing.
[[record]]
structure_string = "Cc1ccc(NC(=O)Nc2ccc(Cl)cc2)cc1NC(=O)c1cnoc1C"
result = "> 30 µM"

[[record]]
structure_string = "Cc1ccc(NC(=O)c2ccc(N3CCOCC3)c(C(F)(F)F)c2)cc1NC(=O)c1cnoc1C"
result = "> 30 µM"

[[record]]
structure_string = "Cc1ccc(NC(=O)c2ccc(-c3ccccc3)cc2)cc1NC(=O)c1cnoc1C"
result = "> 30 µM"

[[record]]
structure_string = "CCCS(=O)(=O)Nc1ccc(NC(=O)c2cnoc2C)c(C)c1"
result = "> 30 µM"

[[record]]
structure_string = "Cc1cc(NC(=O)Nc2ccccc2F)ccc1NC(=O)c1cnoc1C"
result = "> 30 µM"


// next entry
Which GI50 at 24 h reading was recorded for the molecule Cc1ccc(NC(=O)Nc2ccccc2F)cc1NC(=O)c1cnoc1C ?
> 30 µM

* * *

# System: U-937
# Experiment summary: Antiproliferative activity against human U937 cells after 24 hrs by MTT assay
# Format: functional
# Condition: U-937, 24 h
Assay readout: GI50 (µM)
Express the result in µM but write the number alone.

[[record]]
structure_string = "Cc1ccc(NC(=O)c2ccc(N3CCOCC3)c(C(F)(F)F)c2)cc1NC(=O)c1cnoc1C"
numeric_value = 0.465


// next entry
Please provide the recorded GI50 for Cc1ccc(NC(=O)Nc2ccc(Cl)c(Cl)c2)cc1NC(=O)c1cnoc1C , tested on U-937.
1.89

* * *

# System: U-937
# Experiment summary: Antiproliferative activity against human U937 cells after 24 hrs by MTT assay
# Assay type: functional
# Condition: U-937, 24 h
Assay readout: GI50

[[record]]
molecule = "Cc1cn(-c2cc(C(=O)Nc3ccc(C)c(NC(=O)c4cnoc4C)c3)cc(C(F)(F)F)c2)cn1"
assay_readout = "GI50"
result = "0.049 µM"

[[record]]
molecule = "Cc1ccc(NC(=O)Cc2c[nH]c3ccccc23)cc1NC(=O)c1cnoc1C"
assay_readout = "GI50"
result = "> 30 µM"

[[record]]
molecule = "Cc1cc(NC(=O)Nc2ccc(Cl)c(C(F)(F)F)c2)ccc1NC(=O)c1cnoc1C"
assay_readout = "GI50"
result = "16.5 µM"

[[record]]
molecule = "Cc1ccc(NC(=O)Nc2cccc(Cl)c2)cc1NC(=O)c1cnoc1C"
assay_readout = "GI50"
result = "> 30 µM"

[[record]]
molecule = "Cc1cc(NC(=O)Nc2ccccc2F)ccc1NC(=O)c1cnoc1C"
assay_readout = "GI50"
result = "> 30 µM"

[[record]]
molecule = "Cc1ccc(NC(=O)Cc2ccc(-c3ccccc3)cc2)cc1NC(=O)c1cnoc1C"
assay_readout = "GI50"
result = "> 30 µM"

[[record]]
molecule = "Cc1ccc(NC(=O)c2ccc(-c3ccccc3)cc2)cc1NC(=O)c1cnoc1C"
assay_readout = "GI50"
result = "> 30 µM"

[[record]]
molecule = "Cc1ccc(NC(=O)C(c2ccc(Cl)cc2)c2ccc(Cl)cc2)cc1NC(=O)c1cnoc1C"
assay_readout = "GI50"
result = "> 30 µM"

[[record]]
molecule = "CCCS(=O)(=O)Nc1ccc(NC(=O)c2cnoc2C)c(C)c1"
assay_readout = "GI50"
result = "> 30 µM"

[[record]]
molecule = "Cc1ccc(NC(=O)Nc2ccc(Cl)c(C(F)(F)F)c2)cc1NC(=O)c1cnoc1C"
assay_readout = "GI50"
result = "> 30 µM"


Please provide the recorded GI50 for Cc1cc(NC(=O)Nc2cccc(Cl)c2)ccc1NC(=O)c1cnoc1C , tested on U-937.
> 30 µM

Try Cc1cc(C)cc(C(=O)Nc2ccc(C)c(NC(=O)c3cnoc3C)c2)c1 next.
3.1 µM
